The reported numbers originate from PubChem BioAssay (NCATS).

Assay Info: Quantitative High-Throughput drug screen in 47 multiple myeloma cell lines against the NCATS MIPE library collection: PCM6_Riken cell viability assay (AID 1919870); also: nearly all actives have a fitted effect of over 30% in size
Settings: CellTiter-Glo ATP, 48 h; series mostly up to 45.8 µM
Records with an inconclusive call do not appear. The source made the active and inactive calls. Calls follow the shape of the dose curve; as a rule, active = well fitted cell-killing curve with a large enough effect; inconclusive = small, poorly fitted or top-dose-only effect, or effect the other way; inactive = no such curve, though single readings can be large or run the other way.
# output must be one of active, inactive

How did this test come out for Cc1ccc2c(=O)c3cccc(CC(=O)O)c3oc2c1C ?
active

So what was the verdict on CC(C)CNc1ccnc(NCc2csc(-c3ccccc3)n2)n1 in this test?
active

// outcome(item) with item = CN1CCN2c3ncccc3Cc3ccccc3C2C1 (stereo not drawn)
inactive

====

Assay Info: Quantitative High-Throughput drug screen in 47 multiple myeloma cell lines against the NCATS MIPE library collection: KMS12BM_JCRB cell viability assay (AID 1918971); also: nearly all actives have a fitted effect of over 35% in size
Settings: KMS12BM myeloma viability, CellTiter-Glo ATP, 48 h; series mostly up to 45.8 µM
From the text: PI: Beverly A. Mock Ph.D. Laboratory of Cancer Biology and Genetics, Center for Cancer Research, National Cancer Institute, National Institute of Health, Bethesda, Maryland […] 5; Detector; 425V; Luminescence; Viewlux PerkinElmer. […] 1. […] Briefly, the corresponding myeloma cell lines were screened in 1,536-well plates with 500 cells, 5-uL per well for inhibition of cell viability (assessed by measuring ATP levels with CellTiterGlo). […]
Records with an inconclusive call do not appear. Active and inactive are the calls of the source. Calls follow the shape of the dose curve; as a rule, active = well fitted cell-killing curve with a large enough effect; inconclusive = small, poorly fitted or top-dose-only effect, or effect the other way; inactive = no such curve, though single readings can be large or run the other way.
# valid calls are active, inactive; nothing else

Please share the test call associated with Cc1nn(Cc2ccccc2Cl)c(C)c1CN(C)CC(O)COc1ccc(Cl)cc1 (stereo not given) .
active

Test call for this molecule, please: CN1CC(=O)N2C(Cc3c([nH]c4ccccc34)[C@H]2c2ccc3c(c2)OCO3)C1=O (stereo not given in full)
active

Called result for NC[C@H]1O[C@H](O[C@@H]2[C@@H](O)[C@@H](O[C@H]3O[C@H](CO)[C@@H](O)[C@H](N)[C@@H]3O)[C@H](N)C[C@@H]2N)[C@H](O)[C@@H](O)[C@H]1O
inactive

Field: outcome | Entry: COc1ccc2nc3cc(Cl)ccc3c(Nc3cc(CN4CCCC4)c(O)c(CN4CCCC4)c3)c2n1
active

# fetch the recorded call for C[C@H](CCC(=O)O)[C@H]1CC[C@H]2[C@H]3[C@@H](CC[C@]12C)[C@@]1(C)CC[C@@H](O)C[C@H]1C[C@@H]3O here
inactive

====

Assay Info: qHTS profiling of the MIPE4 collection as inhibitors of Plasmodium falciparum (DD2) proliferation (Rep 2) (AID 743346)
Settings: P. falciparum Dd2 in erythrocytes, SYBR Green DNA, 72 h; at 28.5 µM (top of the series) unless noted
Readout Type: parasite growth, % of control (lower = inhibition) (%)
Numeric answer only, unit % assumed.

Indicate the recorded parasite growth, % of control (lower = inhibition) value for this compound: CCn1c(-c2nonc2N)nc2cncc(CNC3CCNCC3)c21
43.8

Retrieve parasite growth, % of control (lower = inhibition) measured for C[C@@]1(c2cc(-c3cncnc3)c(F)cc2F)CCSC(N)=N1 and print it.
28.2

Identify the reported parasite growth, % of control (lower = inhibition) for the following entry. Cn1cc(-c2ccc3nnc(Sc4ccc5ncccc5c4)n3n2)cn1
42.5

====

Assay Info: Quantitative High-Throughput drug screen in 47 multiple myeloma cell lines against the NCATS MIPE library collection: ARD_JJKsccE7 cell viability assay (AID 1918929;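 as to viability: 100% = DMSO-only wells and 0% = media-only wells without cells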)
Settings: ARD myeloma cell line viability, CellTiter-Glo, 48 h; series mostly up to 45.8 µM
Results filed as inconclusive are left out. The source made the active and inactive calls. The call rests on the fitted dose curve; in most records, active means well fitted cell-killing curve with a large enough effect; inconclusive means small, poorly fitted or top-dose-only effect, or effect the other way; inactive means no such curve, though single readings can be large or run the other way.
Pick one: active, inactive

Entry CN(C)CCOc1ccc(C(=C(CCCl)c2ccccc2)c2ccccc2)cc1 : call = ?
inactive

What did the test return for COc1ccc2c(c1)c(C1=C(c3c[nH]c4ccccc34)C(=O)NC1=O)cn2CCCN(C)C ?
active

Short answer needed: outcome of this test for NC[C@H]1O[C@H](O[C@@H]2[C@@H](O)[C@@H](O[C@H]3O[C@H](CO)[C@@H](O)[C@H](N)[C@@H]3O)[C@H](N)C[C@@H]2N)[C@H](O)[C@@H](O)[C@H]1O ?
inactive

Recorded test outcome, item OCCn1cc(-c2ccc3c(c2)CCC3=NO)c(-c2ccncc2)n1
active

Write down the call the test reported for this molecule. Item: CCOC(=O)N1CCN([N+]([O-])=NOc2cc(ON=[N+]([O-])N3CCN(C(=O)OCC)CC3)c([N+](=O)[O-])cc2[N+](=O)[O-])CC1
active

Fill in: this test's call for O=S(=O)(NCCNCC=Cc1ccc(Br)cc1)c1cccc2cnccc12 is ___
active

Dear all, I need the recorded test outcome for Cc1c(C(=O)Nc2ccc(N3C[C@@H](C)O[C@@H](C)C3)nc2)cccc1-c1ccc(OC(F)(F)F)cc1 , thank you.
active

Called result for CCCCCCOC(=O)N=C(N)c1ccc(NCc2nc3cc(C(=O)N(CCC(=O)OCC)c4ccccn4)ccc3n2C)cc1
active

Please state the recorded outcome for this molecule: COc1cc(C=CC(=O)O)ccc1O
inactive

====

Assay Info: qHTS profiling for inhibitors of Plasmodium falciparum (3D7) proliferation (AID 743322);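 also: infected erythrocytes exposed to compound for 72 h before lysis; 100% = DMSO vehicle wells and 0% = 0.29 µM artemisinin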
Settings: P. falciparum 3D7 proliferation; at 28.7 µM (top of the series) unless noted
Can you tell me remaining parasite growth % (stronger effect = lower value) for the items I'm about to list?
Please give a number only; it is taken to be in %.

Answer with the recorded remaining parasite growth % (stronger effect = lower value) for the compound listed here: COc1nc(C)cnc1NS(=O)(=O)c1cccnc1-c1ccc(-c2nnco2)cc1
63.7

Fill in reported remaining parasite growth % (stronger effect = lower value) for this entry: O=C1CN2Cc3c(ccc(Cl)c3Cl)N=C2N1
87

Supply reported remaining parasite growth % (stronger effect = lower value) belonging to this compound: COc1cccc(OC)c1-c1cc(C(=O)NC2(C(=O)O)C3CC4CC(C3)CC2C4)nn1-c1ccnc2cc(Cl)ccc12 (configuration not stated)
23.7

Quote remaining parasite growth % (stronger effect = lower value) reported for O=C(Nc1ccc(OC(F)(F)F)cc1)c1sccc1NCc1ccnc2ccccc12 please.
71.5

Fill in reported remaining parasite growth % (stronger effect = lower value) for this entry: NC(=O)c1ccc(N(C(N)=O)c2c(F)cccc2F)nc1-c1ccc(F)cc1F
84.7

# return recorded remaining parasite growth % (stronger effect = lower value) for input O=C(O)Cc1cccc(OCCCN(Cc2cccc(C(F)(F)F)c2Cl)CC(c2ccccc2)c2ccccc2)c1
36.2

Output measured remaining parasite growth % (stronger effect = lower value) for this item: CC(C)Oc1cc(Nc2nc(N[C@@H](C)c3ccc(F)cn3)ncc2Cl)[nH]n1
3.18

====

Assay Info: qHTS of pediatric cancer cell lines to identify multiple opportunities for drug repurposing: Primary screen for SK-N-SH cells (AID 1347098); also: nearly all actives have a fitted effect of over 65% in size
Settings: SK-N-SH viability, CellTiter-Glo luminescence, 48 h; series mostly up to 57 µM
Results filed as inconclusive are left out. Active and inactive are the calls of the source. Calls follow the shape of the dose curve; as a rule, active = well fitted cell-killing curve with a large enough effect; inconclusive = small, poorly fitted or top-dose-only effect; inactive = no such curve, though single readings can be large or run the other way.
The reply should be one of these categories: class 1 for active, class 0 for inactive

Hi team, can someone confirm the assay call for CCCCC[C@H](O)C=C[C@H]1[C@H](O)CC(=O)[C@H]1CCCCCCC(=O)O ?
class 0

Returns: the outcome recorded for CN(C)CCOc1cc(-c2cn[nH]c2)ccc1NC(=O)C1COc2ccccc2O1 (stereo not given) in this assay.
class 1

Dear all, I need the recorded test outcome for Cc1c(C(=O)Nc2ccc(N3C[C@@H](C)O[C@@H](C)C3)nc2)cccc1-c1ccc(OC(F)(F)F)cc1 , thank you.
class 1

Outcome? CNC(=O)c1cc(COc2nnc(Nc3ccc(Cl)cc3)c3ccoc23)ccn1
class 0

Could you please tell me the result logged for O=C1C(CCC(O)c2ccc(F)cc2)C(c2ccc(O)cc2)N1c1ccc(F)cc1 (stereo not given) in this assay?
class 0

GET /call?item= COc1cc2nc(-c3cc(F)ccc3O)nc(N[C@@H]3CNC[C@@H]3C(C)(C)O)c2cc1OC returns the recorded outcome of this test.
class 1

What was the test verdict on CCOC(=O)[C@H]1O[C@H]1C(=O)N[C@@H](CC(C)C)C(=O)NCCC(C)C ?
class 0

Hi team, can someone confirm the assay call for CNC(=O)[C@H](CC1=CN=C2C=CCC=C12)NC(=O)[C@@H](CC(=O)NO)CC(C)C ?
class 1

What outcome does the record of this test show for CCC(c1ccc(O)cc1)C(CC)c1ccc(O)cc1 (stereo not given) ?
class 0

# fetch the recorded call for Cc1nc2c([nH]1)CCN(C(=O)c1ccc(NC(=O)c3ccccc3-c3ccccc3)cc1)c1ccccc1-2 here
class 0

====

Assay Info: Quantitative High-Throughput drug screen in 47 multiple myeloma cell lines against the NCATS MIPE library collection: H1112_PLB cell viability assay (AID 1918967; also: nearly all actives have a fitted effect of over 30% in size; also: potency is read from the fitted curve at half-maximal effect)
Settings: H1112 myeloma cells viability, ATP luminescence, 48 h; series mostly up to 45.8 µM
Records with an inconclusive call do not appear. Activity calls are given as the source filed them. Calls come from the whole dose curve; as a rule, active = well fitted cell-killing curve with a large enough effect; inconclusive = small, poorly fitted or top-dose-only effect, or effect the other way; inactive = no such curve, though single readings can be large or run the other way.
Readout Type: Potency

compound=COc1ccc2c(c1)CC[C@H]1[C@@H]2CC[C@]2(C)[C@@H](NCCCCCCN3C(=O)C=CC3=O)CC[C@H]12 data_value=inactive
compound=C[C@@H]1CCO[C@H]2Cn3cc(C(=O)NCc4ccc(F)cc4F)c(=O)c(O)c3C(=O)N12 data_value=inactive
compound="CN(C(Cc1ccc(OS(=O)(=O)c2cccc3cnccc23)cc1)C(=O)N1CCN(c2ccccc2)CC1)S(=O)(=O)c1cccc2cnccc12 (stereo not given)" data_value="8.33 µM (active)"
compound=CC[C@H](NC(=O)[C@H](C)NC)C(=O)N1C[C@@H](O)C[C@H]1Cc1c(-c2[nH]c3cc(F)ccc3c2C[C@H]2C[C@H](O)CN2C(=O)[C@H](CC)NC(=O)[C@H](C)NC)[nH]c2cc(F)ccc12 data_value="11.8 µM (active)"

Give reported Potency value for CCN1CCN(c2ccc(Nc3cc(N(C)C(=O)Nc4c(Cl)c(OC)cc(OC)c4Cl)ncn3)cc2)CC1
inactive
